- assayMethodText: Phase 3 randomized crossover trial: decitabine total exposure over 5 days (AUC) and plasma pharmacokinetics
- Assay type: in vivo, human
- runConditions: human, plasma, intravenous, 20 mg/m^2/d, Sensitivity, unpaired; read-out: 5-Day Decitabine AUC0-24 LSM
observable: AUC(0-t) (µg·h/mL)
Answers are plain numbers, in µg·h/mL.

Any idea what its AUC(0-t) is? The compound is `Nc1ncn([C@H]2C[C@H](O)[C@@H](CO)O2)c(=O)n1`
0.866

---

- assayMethodText: Phase 3 randomized crossover trial: decitabine total exposure over 5 days (AUC) and plasma pharmacokinetics
- Type: in vivo, human
- runConditions: human, plasma, intravenous, 20 mg/m^2/d, Primary endpoint, paired; cycles 1 and 2; read-out: 5-Day Decitabine AUC0-24 LSM
observable: AUC(0-t) (ng·h/mL)
Numbers only, in ng·h/mL.

// query AUC(0-t) value for entry `Nc1ncn([C@H]2C[C@H](O)[C@@H](CO)O2)c(=O)n1`
865
